- smiles representation: "O=C(O)c1cccc(Oc2cccc(-c3nnc(N(Cc4ccc(C(F)(F)P(=O)(O)O)c(Cl)c4)c4ccc(Cl)c(Cl)c4)s3)c2)c1"
  melting point: "178 to 180 °C"
- smiles representation: "COC(=O)c1cccc(Oc2cccc(-c3nnc(N(Cc4ccc(C(F)(F)P(=O)(O)O)c(Cl)c4)c4ccc(Cl)c(Cl)c4)s3)c2)c1"
  melting point: "73 to 76 °C"
- smiles representation: "O=C(O)c1cccc(Oc2cccc(-c3nn(Cc4ccc(C(F)(F)P(=O)(O)O)c(Cl)c4)c(=Nc4ccc(Cl)c(Cl)c4)s3)c2)c1"
  melting point: "212 to 215 °C"
- smiles representation: "O=C(O)c1cccc(Oc2cccc(-c3nn(Cc4ccc(C(F)(F)P(=O)(O)O)c(F)c4)c(=Nc4ccc(Cl)c(Cl)c4)s3)c2)c1"
  melting point: "153 to 156 °C"
- smiles representation: "COC(=O)c1cccc(Oc2cccc(-c3nn(Cc4ccc(C(F)(F)P(=O)(O)O)c(F)c4)c(=Nc4ccc(Cl)c(Cl)c4)s3)c2)c1"
  melting point: "137 to 139 °C"
- smiles representation: "COC(=O)c1cccc(Oc2cccc(-c3nn(Cc4ccc(C(F)(F)P(=O)(O)O)c(Cl)c4)c(=Nc4ccc(Cl)c(Cl)c4)s3)c2)c1"
  melting point: "137 to 139 °C"
